Tested on: Liver microsomes
Assay: Intrinsic clearance in rat liver microsomes assessed per mg of protein after 10 to 60 mins by LC-MS analysis in presence of NADPH
Type: ADME, Microsome
Measured parameter: CLint (mL/min/mg)
Write the answer as a number in mL/min/mg, unit excluded.

Here are 3 molecules together with their reported answers.
Molecule	Unit of measure	CLint
CC(C)(C)n1nc(Cc2cc(Cl)ccc2F)c2c(N)ncnc21	mL/min/mg	0.25
CC(C)n1nc(C(F)c2cccc(Cl)c2Cl)c2c(N)ncnc21 (stereo not drawn)	mL/min/mg	0.107
CC(C)n1nc(C(O)c2cccc(Cl)c2Cl)c2c(N)ncnc21 (stereo not drawn)	mL/min/mg	0.068

Prompt line: Consider the molecule `CC(C)n1nc(Cc2cccc(Cl)c2Cl)c2c(N)ncnc21` and give its measured CLint.
Response line: 0.19

====

# pEC50 listing for each entry below
Tested on: Toxoplasma gondii
Assay: Antiparasitic activity against wild type tachyzoites of Toxoplasma gondii RH type 1 infected in HFF cells incubated for 20 mins prior to inoculation followed by compound washout at 4 hrs measured after 72 hrs by beta-galactoside reporter assay
Assay type: functional, organism-based
Conditions: RH type 1, HFF
The scale used: pEC50 is minus the common logarithm of the concentration in molar units.

Prompt line: Consider the compound `Cc1cccc(Cc2nn(C(C)(C)C)c3ncnc(N)c23)c1` and give its measured pEC50.
Response line: 6.96

====

Test system: Toxoplasma gondii
Assay: Antiparasitic activity against wild type tachyzoites of Toxoplasma gondii RH type 1 infected in HFF cells incubated for 20 mins prior to inoculation followed by compound washout at 4 hrs measured after 72 hrs by beta-galactoside reporter assay
Format: functional, organism-based
Settings: RH type 1, HFF
Measured parameter: pEC50
The scale used: pEC50 is minus the common logarithm of the concentration in molar units.

Here are 2 molecules together with their reported answers.
Smiles data	Assayed target	pEC50
CC(C)n1nc(Cc2ccc(F)c(Cl)c2)c2c(N)ncnc21	Toxoplasma gondii	6.25
CC(C)n1nc(Cc2cc(F)cc(F)c2)c2c(N)ncnc21	Toxoplasma gondii	5.68

In the following, a different molecule is considered.
Prompt line: Value wanted: pEC50 (Toxoplasma gondii) of entry `CC(C)(C)n1nc(Cc2cccc(Br)c2)c2c(N)ncnc21`
Response line: 6.42
